# TEST METHOD NOTES: Metabolic stability in simulated intestinal fluid assessed as compound remaining at pH 6.8 after 2 mins by HPLC analysis
# Type: ADME
# TEST CONTEXT: read-out: Stability
METRIC NAME: remaining at 2 min (%)
Please state the figure in %; there is no need to write the unit.

According to the records, this compound CC(=O)Oc1ccccc1C(=O)OC(C)O[N+](=O)[O-] (stereo unspecified) displays remaining at 2 min of 91

###

# TEST METHOD NOTES: Metabolic stability in simulated intestinal fluid assessed as compound remaining at pH 6.8 measured immediately by HPLC analysis
# Assay type: ADME
# TEST CONTEXT: read-out: Stability
METRIC NAME: remaining at 0 min (%)
Please state the figure in %; there is no need to write the unit.

According to the records, this compound CC(=O)Oc1ccccc1C(=O)OC(C)O[N+](=O)[O-] (stereo unspecified) displays remaining at 0 min of 100

###

# TEST METHOD NOTES: in vivo
# TEST CONTEXT: Sprague-Dawley, rat, po, 10 mg/kg
# Description: Cmax in Sprague-Dawley rat at 10 mg/kg, po after 15 mins
METRIC NAME: Cmax at 0.25 h (µg/mL)
Please state the figure in µg/mL; there is no need to write the unit.

According to the records, this molecule COc1ccc2cc([C@H](C)C(=O)O)ccc2c1 [NAPROXEN] displays Cmax at 0.25 h of 55

###

# TEST METHOD NOTES: Metabolic stability in simulated intestinal fluid assessed as compound remaining at pH 6.8 after 60 mins by HPLC analysis
# Type: ADME
# TEST CONTEXT: read-out: Stability
METRIC NAME: remaining at 1 h
# output: number + unit

According to the records, this compound CC(=O)Oc1ccccc1C(=O)OC(C)O[N+](=O)[O-] (stereo unspecified) displays remaining at 1 h of 4%

###

# TEST METHOD NOTES: AUC in Wistar rat at 44.83 mg/kg, po
# Type: ADME, organism-based
# Set-up: dose 44.83 mg/kg, route oral
# TEST CONTEXT: plasma
METRIC NAME: AUC (µg·h/mL)
Please state the figure in µg·h/mL; there is no need to write the unit.

According to the records, this compound CC(=O)Oc1ccccc1C(=O)OC(C)O[N+](=O)[O-] (stereo unspecified) displays AUC of 398

###

# TEST METHOD NOTES: in vivo
# TEST CONTEXT: Sprague-Dawley, rat, plasma, po, 10 mg/kg
# Description: Cmax in Sprague-Dawley rat at 10 mg/kg, po after 8 hrs
METRIC NAME: Cmax at 8 h

According to the records, this compound COc1ccc2cc([C@H](C)C(=O)O)ccc2c1 displays Cmax at 8 h of < 15000 ng/mL

###

# TEST METHOD NOTES: Metabolic stability in simulated gastric fluid assessed as compound remaining at pH 1.2 after 10 mins by HPLC analysis
# Assay type: ADME
# TEST CONTEXT: read-out: Stability
METRIC NAME: remaining at 10 min

Previously resolved entries follow.
>  <COMPOUND>
CC(=O)Oc1ccccc1C(=O)OC(C)O[N+](=O)[O-] (stereo not given)

>  <REPORTED RESULT>
45%

$$$$
>  <COMPOUND>
CCCCC(OC(=O)[C@@H](C)c1ccc2cc(OC)ccc2c1)O[N+](=O)[O-] (stereo not given in full)

>  <REPORTED RESULT>
96%

$$$$
>  <COMPOUND>
COc1ccc2cc([C@H](C)C(=O)OC(C)O[N+](=O)[O-])ccc2c1 (stereo not given in full)

>  <REPORTED RESULT>
75%

$$$$
>  <COMPOUND>
CCC(OC(=O)[C@@H](C)c1ccc2cc(OC)ccc2c1)O[N+](=O)[O-] (stereo not given in full)

>  <REPORTED RESULT>
90%

$$$$

According to the records, this compound CCCC(OC(=O)[C@@H](C)c1ccc2cc(OC)ccc2c1)O[N+](=O)[O-] (stereo not given in full) displays remaining at 10 min of 94%
